experiment: chemical genetic growth profiling, strain panel (AID 1159580);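 note: tested at 20 µM; growth read once vehicle control cultures reached saturation at 30 °C; 1 = growth at the plate median or of vehicle wells; lower values mean less growth of the strain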; conditions: S. cerevisiae deletion strains, growth OD, locus YMR219W, strain ESC1, active compounds read low
Screen size: about 5,500 compounds; about 2,000 (36%) were called active. Inconclusive results (about 18%) are left out. This is one part of the list.
Reported values of normalized growth for individual entries

Molecule: COC(=O)c1csc2c(C(F)(F)F)cc(N3CCN(S(=O)(=O)c4ccc(C)cc4)CC3)nc12
normalized growth: 0.995

Molecule: CC(=O)c1csc([N+](=O)[O-])c1
normalized growth: 0.996

Molecule: N#C/C(=N/Nc1ccc(C(F)(F)F)cc1)C(=O)C1CC1
normalized growth: 0.986

Molecule: COc1cccc(CC(=O)NN)c1
normalized growth: 0.986

Molecule: COc1ccc(/C=C(\C#N)c2nc3ccccc3[nH]2)cc1OC
normalized growth: 0.971

Molecule: CCOC(=O)c1csc(N/N=C2/CCCc3ccccc32)n1
normalized growth: 0.92

Molecule: N#CC(C#N)=CNc1cc(C(F)(F)F)ccc1N1CCCCC1
normalized growth: 1

Molecule: CCSC(SCC)[C@H](O)[C@@H](O)[C@H](O)CO
normalized growth: 1

Molecule: Cc1ccc(S(=O)(=O)/C(C#N)=N\O)cc1
normalized growth: 1

Molecule: O=C(O)C12CC3CC(CC(Br)(C3)C1)C2
normalized growth: 0.998

Molecule: CC(=O)/C(=C\N(C)C)Sc1ccc(Cl)cc1
normalized growth: 0.86

Molecule: O=[N+]([O-])c1ccc(C2N(Cc3ccccc3)CCC3CCCCN32)cc1 (stereo not drawn)
normalized growth: 0.988

Molecule: Cc1cc(N=CNO)c2ccccc2n1
normalized growth: 1

====

Reported values of normalized growth for individual entries
assay: chemical genetic growth profiling, strain panel (AID 1159580);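 note: tested at 20 µM; growth read once vehicle control cultures reached saturation at 30 °C; 1 = growth at the plate median or of vehicle wells; lower values mean less growth of the strain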; settings: S. cerevisiae deletion strains, growth OD, locus YGL248W, strain PDE1, active compounds read low
The campaign covered roughly 5,500 compounds. About 2,000 (36%) were called active. Roughly 18% stayed inconclusive and do not appear here. The list shows a part of the results.

Compound: CC(=O)O[C@@H]1CC2C(C)(C)C(=O)[C@@H]3O[C@@H]3[C@]2(C)C2CC[C@]3(C)C(=CC(=O)O[C@H]3c3ccoc3)[C@@]21C (some centres not stated)
normalized growth: 1.01

Compound: COc1cc2ccc(=O)oc2c2ccoc12
normalized growth: 0.952

Compound: COc1ccc(Cc2nccc3cc(OC)c(OC)cc23)cc1OC
normalized growth: 1.01

Compound: CN1Cc2c(N)cccc2C(c2ccccc2)C1 (configuration not stated)
normalized growth: 0.991

Compound: CN(C)c1nc(N(C)C)nc(N(C)C)n1
normalized growth: 1.01

Compound: Cc1cc(O)c2c(c1O)C(=O)c1c(O)cc(C)c(O)c1C2=O
normalized growth: 0.945

Compound: CC(=O)Oc1ccc2c(c1)CCC1C2CC[C@@]2(C)C1CC[C@@H]2OC(C)=O (some centres not stated)
normalized growth: 0.94

Compound: CCC(=O)O[C@H]1CCC2C3CCc4cc(O)ccc4C3CC[C@@]21C (some centres not stated)
normalized growth: 0.961

Compound: CC1(C)C[C@@H]2C(=O)CC[C@H]3O[C@]3(C)CC[C@H]21
normalized growth: 1

Compound: COC(=O)C[C@H]1C(C)(C)C(OC(C)=O)[C@]2(O)C=C3C4CC(=O)O[C@@H](c5ccoc5)[C@]4(C)CCC3[C@@]1(C)C2=O (some centres not stated)
normalized growth: 1

Compound: Cc1c(N(C)CS(=O)(=O)O)c(=O)n(-c2ccccc2)n1C
normalized growth: 0.991

Compound: CC(C)=CCC1=C(O)c2ccccc2C(=O)C1=O
normalized growth: 0.964

Compound: COc1ccc2c(=O)c(CC(=O)O)coc2c1
normalized growth: 1.01

Compound: Cc1cccc(N(C)C(=S)Oc2ccc3ccccc3c2)c1
normalized growth: 0.974

Compound: C[C@]12CCC3c4ccc(O)cc4CCC3C1CC[C@@H]2OC(=O)CCC1CCCC1 (some centres not stated)
normalized growth: 0.99

Compound: CCCCC(=O)N(Cc1ccc(-c2ccccc2-c2nn[nH]n2)cc1)[C@H](C(=O)O)C(C)C
normalized growth: 0.991

Compound: Nc1ncnc2nc[nH]c12
normalized growth: 0.9

Compound: C[N+]1(C)C2CC[C@H]1CC(OC(=O)C(O)c1ccccc1)C2 (some centres not stated)
normalized growth: 0.999

Compound: O=C1c2ccccc2C(=O)c2c1ccc(O)c2O
normalized growth: 0.21

Compound: C[C@]12C=CC(=O)C=C1CCC1C2C(=O)C[C@@]2(C)C1CC[C@]2(O)C(=O)CO (some centres not stated)
normalized growth: 0.978

Compound: CCOc1ccc(Cc2nccc3cc(OCC)c(OCC)cc23)cc1OCC
normalized growth: 0.944

Compound: CCN(CC)CCNC(=O)COc1ccc(OC)cc1
normalized growth: 0.995
